biological target: Arp2/3 complex (UniProt P61158 1-418); assay: fluorescence polarisation
Kindly state Kd for each of the entries shown.
Please respond with the number in nM and leave the unit unwritten.

Note down Kd recorded for cortactin NtA (peptide) MWKASAGHAVSITQDDGGADDWETDPDFVNDVSEKEQRWGAKTVQGSGHQEHINIHKLRENVFQEHQTLKEKELETGPKASHGY
17

Note down Kd recorded for chemically crosslinked WASP VCA (xlWASP VCA) (other, chemically crosslinked to the second copy (crosslinker and site not shown)) GGRGALLDQIRQGIQLNKTPGAPESSALQPPPQSSEGLVGALMHVMQKRSRAIHSSDEGEDQAGDEDEDDEWDD
70
